target: Gonadotropin-releasing hormone receptor (Canis familiaris); test: In vitro inhibition of binding to gonadotropin-releasing hormone receptor in dog
property.label: pIC50
Scale explanation: pIC50 corresponds to minus log10 of a concentration expressed in moles per litre.

Exam item: Give its pIC50 value. Item: Cc1cc(-c2c(OCC[C@@H]3CCN3)c3cc(C(=O)Nc4ccncn4)c(Cl)cc3[nH]c2=O)cc(C)c1C
Marked response: 7.22

====

molecular target: Gonadotropin-releasing hormone receptor (Macaca mulatta); test: In vitro inhibition of gonadotropin-releasing hormone receptor in rhesus monkey
property.label: pIC50
Scale explanation: pIC50 corresponds to minus log10 of a concentration expressed in moles per litre.

Exam item: Give its pIC50 value. Item: Cc1cc(-c2c(OCC[C@@H]3CCN3)c3cc(C(=O)Nc4ccncn4)c(Cl)cc3[nH]c2=O)cc(C)c1C
Marked response: 9.30

====

molecular target: Gonadotropin-releasing hormone receptor (Macaca mulatta); assay: Functional antagonism at the rhesus monkey gonadotropin-releasing hormone receptor
property.label: IC50 (nM)
Write the answer as a number in nM, unit excluded.

Exam item: Give its IC50 value. Item: Cc1cc(-c2c(OCC[C@@H]3CCN3)c3cc(C(=O)Nc4ccncn4)c(Cl)cc3[nH]c2=O)cc(C)c1C
Marked response: 7

Data provenance is BindingDB's records for doi:10.1021/jm000275p.
